B1: CPEB3 Ribozyme (parent)
chain: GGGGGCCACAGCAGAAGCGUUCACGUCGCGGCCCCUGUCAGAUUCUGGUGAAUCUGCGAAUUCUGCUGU

- Variants of: B1
- assay-name: self-cleavage, relative activity (ratio to wild type); higher = more cleavage; co-transcriptional
Record y whenever self-cleavage is at 0.3 or higher; record n when lower.

>  <variant-description>
G5U G30A

>  <answer-label>
n

$$$$
>  <variant-description>
G25A U69G

>  <answer-label>
y

$$$$
>  <variant-description>
C24A U55C

>  <answer-label>
y

$$$$
>  <variant-description>
A8U C66A

>  <answer-label>
y

$$$$
>  <variant-description>
A23C G47U

>  <answer-label>
y

$$$$
>  <variant-description>
C22U A42G

>  <answer-label>
n

$$$$
>  <variant-description>
G28U U44A

>  <answer-label>
n

$$$$
>  <variant-description>
G17C U36C

>  <answer-label>
n

$$$$
>  <variant-description>
G14A U53A

>  <answer-label>
y

$$$$
>  <variant-description>
G1A U55G

>  <answer-label>
n

$$$$
>  <variant-description>
G28A

>  <answer-label>
n

$$$$
>  <variant-description>
G5C U55G

>  <answer-label>
n

$$$$
>  <variant-description>
U38C U61A

>  <answer-label>
y

$$$$
>  <variant-description>
A59C U61G

>  <answer-label>
y

$$$$
>  <variant-description>
A60G

>  <answer-label>
y

$$$$
>  <variant-description>
G11C G58C

>  <answer-label>
y

$$$$
>  <variant-description>
G5A C33U

>  <answer-label>
y

$$$$
>  <variant-description>
U43G C54U

>  <answer-label>
y

$$$$
>  <variant-description>
A10C A59C

>  <answer-label>
y

$$$$
>  <variant-description>
C6U U49A

>  <answer-label>
y

$$$$
>  <variant-description>
C39G A40G

>  <answer-label>
y

$$$$
>  <variant-description>
G3C C34U

>  <answer-label>
y

$$$$
>  <variant-description>
G5U C57U

>  <answer-label>
n

$$$$
>  <variant-description>
A51C U55C

>  <answer-label>
y

$$$$
>  <variant-description>
C7A C12U

>  <answer-label>
y

$$$$
>  <variant-description>
C24A G68C

>  <answer-label>
y

$$$$
>  <variant-description>
C9G C66A

>  <answer-label>
y

$$$$
>  <variant-description>
G31A U38A

>  <answer-label>
y

$$$$
>  <variant-description>
G3C C24A

>  <answer-label>
n

$$$$
>  <variant-description>
G47U G68U

>  <answer-label>
y

$$$$
>  <variant-description>
A15G A51G

>  <answer-label>
y

$$$$
>  <variant-description>
C34A U46C

>  <answer-label>
y

$$$$
>  <variant-description>
C7U C22U

>  <answer-label>
n

$$$$
>  <variant-description>
U21C G31A

>  <answer-label>
y

$$$$
>  <variant-description>
A23C U46C

>  <answer-label>
y

$$$$
>  <variant-description>
U44A A51C

>  <answer-label>
y

$$$$
>  <variant-description>
G17U C34A

>  <answer-label>
n

$$$$
>  <variant-description>
C33G U43C

>  <answer-label>
y

$$$$
>  <variant-description>
U64C C66A

>  <answer-label>
y

$$$$
>  <variant-description>
C6G A15U

>  <answer-label>
n

$$$$
>  <variant-description>
C22U U62C

>  <answer-label>
n

$$$$
>  <variant-description>
C29U C33U

>  <answer-label>
y

$$$$
>  <variant-description>
C29A U44G

>  <answer-label>
y

$$$$
>  <variant-description>
A13U C45U

>  <answer-label>
y

$$$$
>  <variant-description>
G5C U26C

>  <answer-label>
n

$$$$
>  <variant-description>
C32A U53A

>  <answer-label>
y

$$$$
>  <variant-description>
U49G A52G

>  <answer-label>
y

$$$$
>  <variant-description>
C6U G28U

>  <answer-label>
n

$$$$
>  <variant-description>
C9U U26G

>  <answer-label>
y

$$$$
>  <variant-description>
U38A A60U

>  <answer-label>
y

$$$$
>  <variant-description>
G1A U53G

>  <answer-label>
n

$$$$
>  <variant-description>
A13G A23U

>  <answer-label>
y

$$$$
>  <variant-description>
C22A C63U

>  <answer-label>
n

$$$$
>  <variant-description>
C33G G68U

>  <answer-label>
y

$$$$
>  <variant-description>
G14C

>  <answer-label>
y

$$$$
>  <variant-description>
U49A U69C

>  <answer-label>
y

$$$$
>  <variant-description>
G19A G47U

>  <answer-label>
n

$$$$
>  <variant-description>
A8C C66A

>  <answer-label>
y

$$$$
>  <variant-description>
U46G G56A

>  <answer-label>
y

$$$$
>  <variant-description>
U49A G68U

>  <answer-label>
y

$$$$
>  <variant-description>
G47C C63A

>  <answer-label>
y

$$$$
>  <variant-description>
G28C A60C

>  <answer-label>
n

$$$$
>  <variant-description>
C24U C39A

>  <answer-label>
y

$$$$
>  <variant-description>
G28U U61A

>  <answer-label>
n

$$$$
>  <variant-description>
G4C U46G

>  <answer-label>
y

$$$$
>  <variant-description>
C9A U55C

>  <answer-label>
y

$$$$
>  <variant-description>
G19A U20C

>  <answer-label>
n

$$$$
>  <variant-description>
G41A C63A

>  <answer-label>
y

$$$$
>  <variant-description>
C22G G56C

>  <answer-label>
n

$$$$
>  <variant-description>
C45U A51G

>  <answer-label>
y

$$$$
>  <variant-description>
G2A C12A

>  <answer-label>
n

$$$$
>  <variant-description>
G3C U20C

>  <answer-label>
n

$$$$
